Tested on: Caco-2
Experiment Summary: Apparent permeability from apical to basolateral side of the human Caco2 cells
Assay type: ADME, cell-based
Parameter: Papp

Look over these answered cases.
# Structure Smiles, Target Entity, Parameter, Value
rows = [
    ("Cc1ccc(C(=O)NC2CC2)cc1-c1cnc2c(c1)NC(=O)C2(C)C", "Caco-2", "Papp", "permeable"),
    ("Cc1ccc(C(=O)NC2CC2)cc1-c1ccc2c(c1)NC(=O)C21CCOCC1", "Caco-2", "Papp", "permeable"),
    ("Cc1ccc(C(=O)Nc2ccon2)cc1-c1ccc2c(c1)NC(=O)C21CCOCC1", "Caco-2", "Papp", "permeable"),
    ("Cc1ccc(C(=O)NC2CC2)cc1-c1cnc2c(c1)NC(=O)C21CCCC1", "Caco-2", "Papp", "permeable"),
]

Reported Papp of Cc1ccc(C(=O)Nc2ccon2)cc1-c1ccc2c(c1)NC(=O)C21CCC(F)(F)CC1 : permeable

Briefly, Papp measured for Cc1ncc(C(=O)NC2CC2)cc1-c1ccc2c(c1)NC(=O)C21CCCC1 : permeable

# Papp (molecule: Cc1ccc(C(=O)NC2CC2)cc1-c1ccc2c(c1)NC(=O)C21CCSCC1 ) is permeable

Data point: Cc1ccc(C(=O)NC2CC2)cc1-c1ccc2c(c1)NC(=O)[C@]21CC[C@@H](O)CC1 ; Papp = permeable

Query Cc1ccc(C(=O)NC2CC2)cc1-c1ccc2c(c1)NC(=O)C21CCC(F)(F)CC1 yields Papp of permeable

# molecule Cc1ccc(C(=O)NC2CC2)cc1-c1ccc2c(c1)NC(=O)[C@]21CC[C@H](O)CC1 ; its Papp = permeable

Please fill in: Papp reported for Cc1ccc(C(=O)NC2CC2)cc1-c1cc2c(cn1)C1(CCCC1)C(=O)N2 = permeable

Data point: Cc1ccc(C(=O)NC2CC2)cc1-c1ccc2c(c1)NC(=O)C21CCCC1 ; Papp = permeable

// sample Cc1ccc(C(=O)NC2CC2)cc1-c1ccc2c(c1)NC(=O)C2(CCO)CCO , its Papp was permeable

Measured Papp of Cc1ccc(C(=O)NC2CC2)cc1-c1cnc2c(c1)NC(=O)C21CCOCC1 : permeable

Documented Papp of Cc1ccc(C(=O)NC2CC2)cc1-c1ncc2c(n1)NC(=O)C21CCCC1 : permeable

Papp measured on Cc1ccc(C(=O)NC2CC2)cc1-c1ccc2c(c1)NC(=O)C21CCCCC1 = permeable

Data point: Cc1ccc(C(=O)NC2CC2)cc1-c1ccc2c(c1)NC(=O)C21CCN(C)CC1 ; Papp = permeable

Form field Papp, entry Cc1ccc(C(=O)NC2CC2)cc1-c1cnc2c(c1)NC(=O)C21CCC(F)(F)CC1 : permeable

Just so you know, measured Papp for Cc1c(F)cc(C(=O)NC2CC2)cc1-c1ccc2c(c1)NC(=O)C21CCN(S(C)(=O)=O)CC1 came out at permeable

Notebook: Cc1ccc(C(=O)NC2CC2)cc1-c1ccc2c(n1)NC(=O)C21CCCC1 , Papp read as permeable

====

Experiment Summary: Metabolic stability in rat hepatic microsomes assessed as compound turnover at 5 uM in presence of NADPH after 30 mins
Type: ADME
Cond: liver microsomes, read-out: Activity
# cutoff 20% applies to metabolised at 0.5 h, 5 µM; >= gives y, < gives n

# Structure Smiles, Cat
rows = [
    ("Cc1ccc(C(=O)NC2CC2)cc1-c1ccc2c(c1)NC(=O)[C@]21CC[C@H](O)CC1", "n"),
    ("Cc1ccc(C(=O)NC2CC2)cc1-c1cnc2c(c1)NC(=O)C21CCOCC1", "n"),
    ("Cc1ncc(C(=O)NC2CC2)cc1-c1ccc2c(c1)NC(=O)C21CCCC1", "y"),
    ("Cc1ccc(C(=O)NC2CC2)cc1-c1ccc2c(c1)NC(=O)C21CCSCC1", "y"),
    ("Cc1ccc(C(=O)NC2CC2)cc1-c1ccc2c(c1)NC(=O)[C@]21CC[C@@H](O)CC1", "n"),
]

Query: Is it the case that Cc1ccc(C(=O)Nc2ccon2)cc1-c1ccc2c(c1)NC(=O)C21CCC(F)(F)CC1 has metabolised at 0.5 h, 5 µM reaching or exceeding 20%?
Response: n

meta.source: ChEMBL document CHEMBL1821672
